quantity: melting point

COc1ccc([C@H]2CN(C)C(=O)[C@@H]2C(=O)Nc2cccc(F)c2F)cc1 [Compound 1343]; 130 to 134 °C
CCc1ccccc1NC(=O)[C@H]1C(=O)N(C)C[C@@H]1c1ccc(C(F)(F)F)cc1 [Compound 935]; 116 to 119 °C
O=C1NC[C@H](c2ccc(F)c(Oc3ccccc3)c2)[C@H]1C(=O)Nc1cccc(F)c1F [Compound 1258]; 123 to 127 °C
C=C(C)c1cccc([C@H]2CN(C)C(=O)[C@@H]2C(=O)Nc2cccc(F)c2F)c1 [Compound 1085]; 113 to 117 °C
O=C1NC[C@H](c2cnc(C(F)(F)F)nc2)[C@H]1C(=O)Nc1ccccc1F [Compound 741]; 227 to 231 °C
O=C1NCC(c2ccccc2)C1C(=O)Nc1ccc(C(F)(F)F)cc1 (stereo not drawn) [Compound 1362]; 221 to 223 °C
O=C1NC[C@H](c2cc(Br)cc(Br)c2)[C@H]1C(=O)Nc1cccc(F)c1F [Compound 1366]; 81 to 85 °C
COc1cccc(C2CN(C)C(=O)C2C(=O)Nc2cccc(F)c2F)c1 (stereo not drawn) [Compound 886]; 137 to 140 °C
Cc1ccc([C@H]2CCNC(=O)[C@@H]2C(=O)Nc2cccc(F)c2F)cc1 [Compound 973]; 174 to 176 °C
O=C1NC[C@H](c2cccc(C(F)(F)F)n2)[C@H]1C(=O)Nc1ccccc1F [Compound 940]; 164 to 167 °C

Challenge: For the compound shown here, C/C=C/C1CNC(=O)C1C(=O)Nc1ccccc1F (stereo not drawn) [Compound 792] , give the reported melting point.
Response given: 133 to 137 °C

Challenge: // lookup melting point for CN1CC(c2cccc(OC/C=C/Cl)c2)C(C(=O)Nc2cccc(F)c2F)C1=O (stereo not drawn) [Compound 772]
Response given: 146 to 150 °C
